From: ChEMBL document CHEMBL4011604

Biological target: geranylgeranyltransferase type-I (Rattus norvegicus, UniProt P53610+Q04631)
Assay: Inhibition of recombinant rat GGTase1 expressed in Escherichia coli using GGDP as substrate measured after 2 hrs by dansyl-GCVLS dye based fluorescence assay
In this section, each of the compounds is paired with its reported IC50.
MEASURED_ENDPOINT: IC50

[
  {
    "SMILES_TEXT": "CC(C)=CCCCn1cc(CC(P(=O)(O)O)P(=O)(O)O)nn1",
    "EXPERIMENTAL_RESULT": "> 100 µM"
  },
  {
    "SMILES_TEXT": "CC(C)=CCC/C(C)=C\\CCCn1cc(CC(P(=O)(O)O)P(=O)(O)O)nn1",
    "EXPERIMENTAL_RESULT": "> 100 µM"
  },
  {
    "SMILES_TEXT": "CC(C)=CCC/C(C)=C/CCCn1cc(CC(P(=O)(O)O)P(=O)(O)O)nn1",
    "EXPERIMENTAL_RESULT": "> 100 µM"
  }
]
